- Test system: CapD gamma-glutamyltranspeptidase (Bacillus anthracis Ames Ancestor)
- Assay overview: Bacillus anthracis CapD inhibitors, primary screen, biochemical, fluorescence intensity (AID 492967)
- Experimental setup: purified CapD enzyme, fluorescence intensity read-out; hits give low values
In all, about 140,000 compounds went through this assay and about 320 (0.23%) were called active. Many of the other results were omitted from the sample, so actives are more common in it than they were.
Property name: z-score

CC(C)C(=O)N=c1scc(-c2ccccc2)n1-c1ccccc1Cl : 0.04
COc1ccc(CCNC(=O)c2cn(C)c(=O)c3cc(OC)c(OC)cc23)cc1OC : 1.5
C=CCN(C(=O)c1ccc(N2CC3CC(C2)c2cccc(=O)n2C3)c(NC(=O)c2ccc(OC)cc2)c1)c1ccccc1 (stereo not given) : -0.49
O=C(NC(=O)N1CCOCC1)c1ccc(S(=O)(=O)N2CCOCC2)cc1 : 0.605
COCCNC(=O)c1ccc(Cn2c(SCC(=O)NCC3CCCO3)nc3ccc(Br)cc3c2=O)cc1 (stereo not given) : -0.085

====

- Test system: CapD gamma-glutamyltranspeptidase (Bacillus anthracis Ames Ancestor)
- Assay overview: Bacillus anthracis CapD inhibitors, primary screen, biochemical, fluorescence intensity (AID 492967)
- Experimental setup: purified CapD enzyme, fluorescence intensity read-out
In all, about 140,000 compounds went through this assay and about 320 (0.23%) were called active. No stated cut-off is given here; in the data, active means z-score mostly below about -2.9 (no sharp cut-off); inactive means mostly above about -1.9. The list comes from a sample in which actives are over-represented; it also holds close analogues and randomly drawn compounds.
Classes used: active, inactive

CC12CCC(C(=O)O)(CC1=O)C2(C)C (stereo unspecified) : inactive
Cc1ccc(C(=O)N/C(=C\c2ccccc2)C(=O)Nc2c(C)n(C)n(-c3ccccc3)c2=O)cc1 : inactive
C=CCn1c(=S)sc2c(=O)[nH]c(C)nc21 : active
O=C(OCC(=O)N1CCCCC1)c1ccc(OC(F)(F)F)cc1 : inactive
COc1ccc(C2Nc3ccccc3C(=O)N2c2ccccc2)cc1CSc1nc2ccccc2s1 (stereo unspecified) : inactive
CCOC(=O)c1ccc(N2N=C(C(F)(F)F)/C(=C/c3cc(Cl)c(O)c(OC)c3)C2=O)cc1 : inactive
Cc1ccc(S(=O)(=O)c2cnc(SCC(=O)N3CCCc4ccccc43)[nH]c2=O)cc1 : inactive
CCOc1ccc(C(=O)/C(C)=N/O)cc1 : inactive
CC1=C(C(=O)OCCc2ccccc2)C(c2ccccc2C(F)(F)F)NC(=O)N1C (stereo unspecified) : inactive
O=C(COC(=O)c1ccccc1)Nc1ncc(Cl)cc1Cl : inactive
C=CCn1c(=S)sc2c(SCC(=O)N3CCc4ccccc43)ncnc21 : inactive

// data source = PubChem BioAssay AID492967
